Measured pIC50 accompanies every entry in the list below.
# target_of_assay: androgen receptor (AR) (Rattus norvegicus)
# Construct: purchased Invitrogen, Madison, Wis
# test_method_notes: androgen receptor binding assay (fluorescence polarization, Fluormone AL Green competition)
pIC50: −log10 of the molar value. Structures can show the parent of a compound that is named as a salt.

compound | pIC50
Cc1c(N[C@@H](c2nnc(-c3ccc(S(C)(=O)=O)cc3)o2)[C@H](C)O)ccc(C#N)c1Cl | 6.70
Cc1c(N[C@@H](c2nnc(-c3ccccc3)o2)[C@@H](C)O)ccc(C#N)c1Cl | 8.22
Cc1c(N[C@@H](c2nnc(-c3ccc(OS(=O)(=O)O)cc3)o2)[C@H](C)O)ccc(C#N)c1Cl [Example 72, sulfate] | 6.11
C[C@H](O)[C@@H](Nc1ccc(C#N)c(Cl)c1Cl)c1nnc(-c2ccc(Cl)cc2)o1 | 8.40
CC(=O)Nc1ccc(-c2nnc([C@H](Nc3ccc(C#N)c(Cl)c3C)[C@H](C)O)o2)cc1 | 9.00
Cc1c(N[C@@H](c2nnc(-c3ccc(S(C)(=O)=O)cc3)o2)[C@@H](C)O)ccc(C#N)c1Cl | 6.59
Cc1c(N[C@@H](c2nnc(-c3ccc(O)c(Cl)c3)o2)[C@H](C)O)ccc(C#N)c1Cl | 9.70
CCc1c(N[C@@H](c2nnc(-c3ccccc3)o2)[C@H](C)O)ccc(C#N)c1Cl | 7.92
Cc1c(N[C@@H](c2nnc(-c3ccc(F)c(O)c3)o2)[C@H](C)O)ccc(C#N)c1Cl | 9.70
Cc1c(N[C@@H](c2nnc(-c3ccc(CO)cc3)o2)[C@H](C)O)ccc(C#N)c1Cl | 8.70
Cc1c(N[C@@H](c2nnc(-c3ccc(C#N)cc3)o2)[C@@H](C)O)ccc(C#N)c1C(F)(F)F | 8.23
C=Cc1c(N[C@@H](c2nnc(-c3ccc(C#N)cc3)o2)[C@H](C)O)ccc(C#N)c1Cl | 9.00
Cc1nnc([C@H](Nc2ccc(C#N)c(Cl)c2C)[C@H](C)O)o1 [Example 43, hydrochloride] | 8.52

---

# target_of_assay: androgen receptor (AR) (Rattus norvegicus)
# Construct: purchased Invitrogen, Madison, Wis
# test_method_notes: androgen receptor binding assay (fluorescence polarization, Fluormone AL Green competition)

molecule | IC50
C[C@H](O)[C@@H](Nc1ccc(C#N)c(C(F)(F)F)c1)c1nnc(-c2ccc(C#N)cc2)o1 | 470 nM
Cc1c(N[C@@H](c2nnc(-c3cccc(F)c3)o2)[C@H](C)O)ccc(C#N)c1Cl | 2 nM
Cc1c(N[C@@H](c2nnc(-c3ccc(Cl)cc3)o2)[C@@H](C)O)ccc(C#N)c1Cl | 15 nM
Cc1c(N[C@@H](c2nnc(-c3ccc(F)c(F)c3)o2)[C@@H](C)O)ccc(C#N)c1Cl | 0.1 nM
Cc1c(N[C@@H](c2nnc(-c3ccc(C#N)cc3)o2)[C@@H](C)O)ccc(C#N)c1Cl | 0.7 nM
Cc1c(NC(c2nnc(-c3ccccc3)o2)C(O)c2ccccc2)ccc(C#N)c1Cl (racemic) | 60 nM
Cc1c(N[C@H](CO)c2nnc(-c3ccc(C#N)cc3)o2)ccc(C#N)c1Cl | 10 nM
Cc1c(N[C@@H](c2nnc(-c3ccc(Br)cc3)o2)[C@H](C)O)ccc(C#N)c1Cl | 10 nM

---

# target_of_assay: androgen receptor (AR) (Rattus norvegicus, UniProt P15207)
# Construct: purchased Invitrogen, Madison, Wis
# Sequence (P15207 651-902 limits assumed): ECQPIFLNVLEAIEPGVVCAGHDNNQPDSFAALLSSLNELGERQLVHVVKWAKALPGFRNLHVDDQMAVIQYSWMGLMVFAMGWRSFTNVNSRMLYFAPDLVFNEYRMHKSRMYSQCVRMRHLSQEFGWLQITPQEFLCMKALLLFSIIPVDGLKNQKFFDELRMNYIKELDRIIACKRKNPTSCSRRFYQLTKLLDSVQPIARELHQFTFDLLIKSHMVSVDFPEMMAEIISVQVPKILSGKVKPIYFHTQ
# test_method_notes: androgen receptor binding assay (fluorescence polarization, Fluormone AL Green competition)
pIC50: −log10 of the molar value.
Measured pIC50 accompanies every entry in the list below.
endpoint: pIC50

structure_notation | endpoint | endpoint_result
Cc1c(N[C@@H](c2nnc(-c3ccc(C#N)cc3)o2)[C@H](C)O)ccc(C#N)c1Cl | pIC50 | 8.70
Cc1c(N[C@@H](c2nnc(-c3ccc(O)c(Cl)c3)o2)[C@@H](C)O)ccc(C#N)c1Cl | pIC50 | 9.52
Cc1c(N[C@@H](c2nnc(-c3ccc(O)cc3)o2)[C@@H](C)O)ccc(C#N)c1Cl | pIC50 | 7.82
CCc1c(N[C@@H](c2nnc(-c3ccc(C#N)cc3)o2)[C@H](C)O)ccc(C#N)c1Cl | pIC50 | 9.00
C[C@@H](O)[C@@H](Nc1ccc(C#N)c2sccc12)c1nnc(-c2ccc(F)cc2)o1 | pIC50 | 9.00
COc1ccc(-c2nnc([C@H](Nc3ccc(C#N)c(Cl)c3C)[C@H](C)O)o2)cc1 | pIC50 | 8.30
Cc1c(N[C@@H](c2nnc(-c3ccc(C#N)cc3)o2)[C@H](C)O)ccc(C#N)c1C(F)(F)F | pIC50 | 8.05
Cc1c(N[C@@H](c2nnc(-c3ccc(-n4cccn4)cc3)o2)[C@H](C)O)ccc(C#N)c1Cl | pIC50 | 9.00
Cc1c(N[C@@H](c2nnc(-c3ccc(O)cc3)o2)[C@H](C)O)ccc(C#N)c1Cl | pIC50 | 7.82
C[C@H](O)[C@@H](Nc1ccc(C#N)c(Cl)c1)c1nnc(-c2ccc(C#N)cc2)o1 | pIC50 | 8.30
CCc1c(N[C@@H](c2nnc(-c3ccc(C#N)cc3)o2)[C@@H](C)O)ccc(C#N)c1Cl | pIC50 | 9.00
Cc1c(N[C@@H](c2nnc(-c3cccc(Cl)c3)o2)[C@H](C)O)ccc(C#N)c1Cl | pIC50 | 8.52
Cc1c(N[C@@H](c2nnc(-c3ccc(O)c(F)c3)o2)[C@H](C)O)ccc(C#N)c1Cl | pIC50 | 10.52
C[C@@H](O)[C@@H](Nc1ccc(C#N)c(C(F)(F)F)c1)c1nnc(-c2ccc(C#N)cc2)o1 | pIC50 | 8.30
Cc1c(N[C@@H](c2nnc(-c3cccc(O)c3)o2)[C@H](C)O)ccc(C#N)c1Cl | pIC50 | 9.40
C[C@@H](O)[C@@H](Nc1ccc(C#N)c2ccccc12)c1nnc(-c2ccccc2)o1 | pIC50 | 8.05

Origin of measurements: patent US8455525B2
